- target.desc: SMYD3 (Homo sapiens (Human), UniProt Q9H7B4)
- Sequence (Q9H7B4 whole entry): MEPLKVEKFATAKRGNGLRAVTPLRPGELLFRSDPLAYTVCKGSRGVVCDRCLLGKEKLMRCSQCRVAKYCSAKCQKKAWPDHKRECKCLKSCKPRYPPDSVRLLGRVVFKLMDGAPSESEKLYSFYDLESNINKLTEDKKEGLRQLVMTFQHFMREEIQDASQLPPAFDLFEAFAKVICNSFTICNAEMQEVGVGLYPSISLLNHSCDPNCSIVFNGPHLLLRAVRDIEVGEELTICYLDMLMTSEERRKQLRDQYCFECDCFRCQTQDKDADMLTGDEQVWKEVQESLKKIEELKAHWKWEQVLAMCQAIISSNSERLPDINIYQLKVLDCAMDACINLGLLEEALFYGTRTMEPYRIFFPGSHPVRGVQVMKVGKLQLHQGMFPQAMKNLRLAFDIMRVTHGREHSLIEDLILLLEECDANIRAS
- method: SMYD3 biochemical assay (SPA, 3H-SAM methylation of MEKK2 protein substrate)
- run.conditions: read-out: SMYD3 Biochem IC50*
- Source text: S-adenosylmethionine (SAM), S-adenosylhomocysteine (SAH), Tris, Tween20, dimethylsulfoxide (DMSO), bovine skin gelatin (BSG), and Tris(2-carboxyethyl)phosphine hydrochloride solution (TCEP) were purchased from Sigma-Aldrich at the highest level of purity possible. ^3H-SAM was purchase from American Radiolabeled Chemicals with a specific activity of 80 Ci/mmol. 384-well opaque white OptiPlates and SPA beads (Perkin Elmer, catalog # RPNQ0013) were purchased from PerkinElmer. […]
pIC50: −log10 of the molar value.
Label F if pIC50 falls below 8; label T in every other case.

Solved entries (count: 5):
CCC[C@@H]1C[C@H](NC(=O)c2cc(C3CC3)on2)CCN1S(=O)(=O)CC1CCN(C)CC1    T
O=C(N[C@H]1C[C@H]2CC[C@@H](C1)N2S(=O)(=O)N1CCC2(CCCN2)CC1)c1cc(C2CC2)on1    T
CN1CCC2(CC1)CN(S(=O)(=O)N1[C@@H]3CC[C@H]1C[C@@H](NC(=O)c1cc(C4CC4)on1)C3)C2    T
C[C@H]1C[C@@H](NC(=O)c2cc(C3CC3)on2)CCN1S(=O)(=O)[C@@H]1CCCNC1    F
O=C(N[C@H]1C[C@H]2CC[C@@H](C1)N2S(=O)(=O)C[C@H]1CCCN1)c1cc(C2CC2)on1    F

Textbook exercise: given the entry `O=C(N[C@H]1C[C@H]2CC[C@@H](C1)N2S(=O)(=O)N1CC2(CCN(CCc3ccccc3)CC2)C1)c1cc(C2CC2)on1` , state whether its pIC50 is greater than or equal to 8.
T

Textbook exercise: given the entry `C[C@H]1C[C@@H](NC(=O)c2cc(C3CC3)on2)CCN1S(=O)(=O)C[C@H]1CCC[C@H](N)C1` , state whether its pIC50 is greater than or equal to 8.
T

Textbook exercise: given the entry `O=C(N[C@H]1C[C@H]2CC[C@@H](C1)N2S(=O)(=O)[C@H]1CC[C@@H](NCCO)CC1)c1cc(C2CC2)on1` , state whether its pIC50 is greater than or equal to 8.
T

Textbook exercise: given the entry `C[C@H]1C[C@@H](NC(=O)c2cc(C3CC3)on2)CCN1S(=O)(=O)CC[C@@H]1CCN(C)C1` , state whether its pIC50 is greater than or equal to 8.
T

###

- target.desc: SMYD3 (Homo sapiens (Human))
- method: SMYD3 cell assay (Trimethyl-MEKK2 In-Cell Western in 293T/17 cells)
- Format: cell-based
IC50 by entry:
Answer with a number only, understood to be in nM.

Some solved entries appear below for comparison.
CC1CN(S(=O)(=O)CCCN)CCC1NC(=O)c1cc(C2CC2)on1 (stereo not shown)    1020
C[C@H]1CN(S(=O)(=O)CCCN)CC[C@H]1NC(=O)c1cc(C2CC2)on1    340

Find IC50 (SMYD3 (Homo sapiens (Human))) for the entry `C[C@H]1CN(S(=O)(=O)CCCN)CC[C@@H]1NC(=O)c1cc(C2CC2)on1`
1230

Find IC50 (SMYD3 (Homo sapiens (Human))) for the entry `C[C@@H]1CN(S(=O)(=O)CCCN)CC[C@@H]1NC(=O)c1cc(C2CC2)on1`
788
